Tested System: Acinus(1) (Homo sapiens, UniProt Q9UKV3)
Sequence: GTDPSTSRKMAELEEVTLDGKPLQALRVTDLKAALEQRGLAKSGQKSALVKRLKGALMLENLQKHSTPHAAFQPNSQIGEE
Assay Overview: protein domain microarray probed with biotinylated miRNA; Domain array: 20 mM Tris-HCl pH 7.4, 200 mM KCl, 0.2 mM EDTA, 0.05% NP40, 2 ug/ul heparin, overnight 4 C. ORF array: PBS pH 7.0 with RNase inhibitor, 100 ng RNA; high values mean tight binding
Experimental Parameters: ssRNA
Decide using binding signal: a value greater than or equal to 100 fluorescence intensity is Yes, a smaller one is No.

Solved entries (count: 4):
sequence=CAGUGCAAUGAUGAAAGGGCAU label=Yes
sequence=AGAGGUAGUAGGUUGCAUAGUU label=Yes
sequence=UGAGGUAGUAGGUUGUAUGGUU label=Yes
sequence=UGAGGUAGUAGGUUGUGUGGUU label=Yes

Next item in the queue.
Is binding signal at least 100 fluorescence intensity? Consider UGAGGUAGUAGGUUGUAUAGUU
No

* * *

// values below are reported binding signal
Tested System: NOL8 (Homo sapiens)
Sequence: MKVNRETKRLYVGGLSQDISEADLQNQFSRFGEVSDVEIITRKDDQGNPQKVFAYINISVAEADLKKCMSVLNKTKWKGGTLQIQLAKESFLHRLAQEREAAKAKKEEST
Assay Overview: protein domain microarray probed with biotinylated miRNA; Domain array: 20 mM Tris-HCl pH 7.4, 200 mM KCl, 0.2 mM EDTA, 0.05% NP40, 2 ug/ul heparin, overnight 4 C. ORF array: PBS pH 7.0 with RNase inhibitor, 100 ng RNA; high values mean tight binding
Experimental Parameters: ssRNA
Write the number in fluorescence intensity without appending the unit.

sequence=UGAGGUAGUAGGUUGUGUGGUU metric_name="binding signal" readout_number=66.3

For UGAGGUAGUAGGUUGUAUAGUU the sequence record lists binding signal as 20.3

Please fill in: binding signal reported for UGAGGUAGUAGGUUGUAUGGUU = 49

The measured binding signal associated with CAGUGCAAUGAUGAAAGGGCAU reads 34.8

* * *

Tested System: ANKHD1 (Homo sapiens, UniProt Q8IWZ3)
Sequence: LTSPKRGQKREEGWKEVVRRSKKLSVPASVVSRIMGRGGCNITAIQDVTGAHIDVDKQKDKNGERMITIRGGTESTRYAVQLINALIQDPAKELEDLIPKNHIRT
Assay Overview: protein domain microarray probed with biotinylated miRNA; Domain array: 20 mM Tris-HCl pH 7.4, 200 mM KCl, 0.2 mM EDTA, 0.05% NP40, 2 ug/ul heparin, overnight 4 C. ORF array: PBS pH 7.0 with RNase inhibitor, 100 ng RNA; high values mean tight binding
Experimental Parameters: ssRNA
binding signal reference

Some sequences with recorded binding signal:
sequence=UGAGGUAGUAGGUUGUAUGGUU metric_name="binding signal" result="53.6 fluorescence intensity"
sequence=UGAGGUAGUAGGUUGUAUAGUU metric_name="binding signal" result="21.6 fluorescence intensity"
sequence=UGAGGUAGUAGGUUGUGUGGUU metric_name="binding signal" result="101 fluorescence intensity"

Then this sequence:
response.value for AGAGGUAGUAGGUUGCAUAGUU (field: binding signal) = 37.7 fluorescence intensity

* * *

Tested System: RBM19(5-6) (Homo sapiens)
Sequence: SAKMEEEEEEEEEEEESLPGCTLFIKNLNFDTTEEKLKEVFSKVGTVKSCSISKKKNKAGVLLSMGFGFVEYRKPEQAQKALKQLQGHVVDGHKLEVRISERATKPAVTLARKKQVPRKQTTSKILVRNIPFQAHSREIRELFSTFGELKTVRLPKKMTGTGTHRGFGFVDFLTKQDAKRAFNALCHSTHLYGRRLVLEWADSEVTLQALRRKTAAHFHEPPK
Assay Overview: protein domain microarray probed with biotinylated miRNA; Domain array: 20 mM Tris-HCl pH 7.4, 200 mM KCl, 0.2 mM EDTA, 0.05% NP40, 2 ug/ul heparin, overnight 4 C. ORF array: PBS pH 7.0 with RNase inhibitor, 100 ng RNA; high values mean tight binding
Experimental Parameters: ssRNA
This section presents sequences with their documented binding signal values.
API: value field is a number in fluorescence intensity; no unit string.

Solved entries:
sequence=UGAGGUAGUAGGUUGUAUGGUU unit_abbreviation="fluorescence intensity" readout_number=231
sequence=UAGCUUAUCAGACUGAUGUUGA unit_abbreviation="fluorescence intensity" readout_number=23.1
sequence=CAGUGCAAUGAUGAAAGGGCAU unit_abbreviation="fluorescence intensity" readout_number=110

Switching to the query record.
binding signal in this record for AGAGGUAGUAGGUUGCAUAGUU : 122
